tested on: DLD-1 colon; assay: NCI tumour cell line growth inhibition, 48 h
OBSERVATION TYPE: log10(TGI) (log10 of the value in µM)
Note: values are log10 of TGI expressed in µM.

MOLECULE | log10(TGI)
C=CCc1ccc(O)c(-c2cc(C3Oc4c(-c5cc(CC=C)ccc5O)cc(O)cc4[C@@H]3CO)ccc2O)c1 (stereo not given in full) | 1.59
CCCCCCCCCCCCC(=O)[O-].CCCCCCCCCCCCC(=O)[O-].CCCCCCCCCCCCC(=O)[O-].CCCCCCCCCCCCC(=O)[O-].[Mo+2].[Mo+2] | 1.37

Request: log10(TGI), test system DLD-1 colon, entry O=C(Nc1cc(Cl)c(Cl)cc1Cl)C(=O)C(C(=O)c1ccc(Cl)c(Cl)c1)C1OC(=O)c2ccccc21 (stereo not given)
1.37

log10(TGI) of O=C1CC2C(=O)N(Cc3ccccc3)C1C(S(=O)(=O)c1ccccc1)C2S(=O)(=O)c1ccccc1 (stereo not given) on DLD-1 colon?
0.50

Can you look up log10(TGI) on DLD-1 colon for C/C=C(/CCCCNCCCC)[Si](C)(C)C ?
1.47
